// data source = ChEMBL document CHEMBL1212854

# Study Target: DNA topoisomerase 1 (Homo sapiens)
# Experimental Protocol: Inhibition of human recombinant Top1-mediated DNA cleavage at 0.1 to 100 uM after 20 mins relative to camptothecin
# Set-up: scale not given: the % may be the effect or the level left
Measurement Kind: Activity (%)
Output spec: scalar in %, unitless text.

stdin: Param item = `O=c1c2ccccc2cc2n1Cc1c-2nc2cc3c(cc2c1CCCN1CCOCC1)OCCO3` ; retrieve measured Activity.
stdout: 50

stdin: // next record `O=c1c2ccccc2cc2n1Cc1c-2nc2cc3c(cc2c1CNCCO)OCCO3`
stdout: 50

stdin: // next record `CN1CCN(Cc2c3c(nc4cc5c(cc24)OCO5)-c2cc4ccccc4c(=O)n2C3)CC1`
stdout: 50

stdin: // next record `O=c1c2ccccc2cc2n1Cc1c-2nc2cc3c(cc2c1Cn1ccnc1)OCCO3`
stdout: 75

stdin: // next record `O=c1c2ccccc2cc2n1Cc1c-2nc2cc3c(cc2c1CNCCCn1ccnc1)OCO3`
stdout: 50

---

List of inhibition of growth at 10 µM values.
# Test system: NCI-60 human cancer cell line panel (Homo sapiens)
# Experimental Protocol: Cytotoxicity against NCI-60 human cancer cell line panel (mean) at 10 uM
# Condition Context: pooled result: one value given for 8 cell lines, strains, targets or settings, read-out: GI
Output spec: scalar in %, unitless text.

O=c1c2ccccc2cc2n1Cc1c-2nc2ccc(Cl)cc2c1CNCCCn1ccnc1 :: 30
O=c1c2ccccc2cc2n1Cc1c-2nc2cc3c(cc2c1CNCCCN1CCOCC1)OCCO3 :: 10.8
CN1CCN(Cc2c3c(nc4cc5c(cc24)OCCO5)-c2cc4ccccc4c(=O)n2C3)CC1 :: 23

Continue with the next compound.
stdin: Param item = `CN(C)CCCc1c2c(nc3cc4c(cc13)OCCO4)-c1cc3ccccc3c(=O)n1C2` ; retrieve measured inhibition of growth at 10 µM.
stdout: 19

---

# Study Target: DNA topoisomerase 1 (Homo sapiens)
# Sequence (whole entry): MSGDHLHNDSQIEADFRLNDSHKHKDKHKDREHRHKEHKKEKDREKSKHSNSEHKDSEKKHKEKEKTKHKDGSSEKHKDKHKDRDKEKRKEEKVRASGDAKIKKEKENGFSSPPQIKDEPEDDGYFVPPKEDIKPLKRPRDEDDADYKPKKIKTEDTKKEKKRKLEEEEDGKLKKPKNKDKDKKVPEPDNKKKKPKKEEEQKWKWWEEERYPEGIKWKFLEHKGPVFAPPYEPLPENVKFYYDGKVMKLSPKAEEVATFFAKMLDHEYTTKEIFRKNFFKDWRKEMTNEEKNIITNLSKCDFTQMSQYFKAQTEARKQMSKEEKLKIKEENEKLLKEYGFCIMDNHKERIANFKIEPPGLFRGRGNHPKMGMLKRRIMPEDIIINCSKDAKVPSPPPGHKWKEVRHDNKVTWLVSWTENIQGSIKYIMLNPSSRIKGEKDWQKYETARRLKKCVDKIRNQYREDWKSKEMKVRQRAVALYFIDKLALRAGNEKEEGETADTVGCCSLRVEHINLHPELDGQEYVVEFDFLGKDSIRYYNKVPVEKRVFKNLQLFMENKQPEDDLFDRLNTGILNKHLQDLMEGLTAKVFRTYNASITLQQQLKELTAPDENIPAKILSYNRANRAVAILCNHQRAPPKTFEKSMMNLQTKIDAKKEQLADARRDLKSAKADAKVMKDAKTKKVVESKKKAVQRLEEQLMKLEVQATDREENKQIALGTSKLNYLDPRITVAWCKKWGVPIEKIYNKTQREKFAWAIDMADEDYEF
# Experimental Protocol: Inhibition of human recombinant Top1-mediated DNA cleavage at 0.1 to 100 uM after 20 mins relative to camptothecin
# Design: scale not given: the % may be the effect or the level left
Active and inactive are the calls of the source. No cut-off for these calls is given here.
Measurement Kind: Activity

Answered examples (5):
O=c1c2ccccc2cc2n1Cc1c-2nc2ccc(Cl)cc2c1CNCCCn1ccnc1 :: 50%
COc1cc2nc3c(c(CN4CCN(C)CC4)c2cc1OC)Cn1c-3cc2ccccc2c1=O :: inactive
O=c1c2ccccc2cc2n1Cc1c-2nc2cc3c(cc2c1CN1CC[C@H](O)C1)OCO3 :: 50%
Cc1cc2c(CNCCCn3ccnc3)c3c(nc2cc1F)-c1cc2ccccc2c(=O)n1C3 :: inactive
CN1CCN(Cc2c3c(nc4cc5c(cc24)OCCO5)-c2cc4ccccc4c(=O)n2C3)CC1 :: 50%

stdin: Checklist item: Activity tested on DNA topoisomerase 1 (Homo sapiens), entry `Cc1cc2c(CN)c3c(nc2cc1F)-c1cc2ccccc2c(=O)n1C3` , value?
stdout: 20%

stdin: // next record `O=c1c2ccccc2cc2n1Cc1c-2nc2ccc(Cl)cc2c1CNCCO`
stdout: 50%

stdin: // next record `O=c1c2ccccc2cc2n1Cc1c-2nc2cc3c(cc2c1CN1CCOCC1)OCCO3`
stdout: 75%

stdin: // next record `O=c1c2ccccc2cc2n1Cc1c-2nc2ccc(Cl)cc2c1Cn1ccnc1`
stdout: 20%

stdin: // next record `O=c1c2ccccc2cc2n1Cc1c-2nc2cc3c(cc2c1CNCCO)OCO3`
stdout: 50%

stdin: // next record O=c1c2ccccc2cc2n1Cc1cc3ccccc3nc1-2 [ROSETTACIN]
stdout: 50%

stdin: // next record `COc1cc2nc3c(c(CCl)c2cc1OC)Cn1c-3cc2ccccc2c1=O`
stdout: inactive

stdin: // next record `O=c1c2ccccc2cc2n1Cc1c-2nc2cccc(Cl)c2c1CNCCCn1ccnc1`
stdout: 75%
